# System: H. pylori strain SS1
# Protocol: MIC, broth microdilution test, strain SS1
# Assay type: cell-based
# Condition summary: Helicobacter pylori, 24 h, full growth inhibition, read-out: minimal inhibitory concentration (MIC) strain SS1
Readout type: MIC (µg/mL)
Numbers only, in µg/mL.

Record excerpt, results attached:
| Smiles entry | Tested system | Test result |
| --- | --- | --- |
| COc1ccc(CC2=C(O)C(=O)c3ccccc3C2=O)cc1 | H. pylori strain SS1 | 10 |
| O=C1C(O)=C(Cc2cc(F)cc(F)c2)C(=O)c2ccccc21 | H. pylori strain SS1 | 10 |
| O=C1C(O)=C(Cc2ccc(Oc3ccccc3)cc2)C(=O)c2ccccc21 | H. pylori strain SS1 | 5 |

Return reported MIC values for all items listed beneath this line.
1. COc1cc(CC2=C(O)C(=O)c3ccccc3C2=O)ccc1O
2. O=C1C(O)=C(C=Cc2ccc(F)cc2)C(=O)c2ccccc21
3. O=C1C(O)=C(Cc2ccc(F)cc2)C(=O)c2ccccc21

Marked response:
1. 10
2. 2.5
3. 10

Return reported MIC values for all items listed beneath this line.
1. O=C1C(O)=C(Cc2ccc(OC(F)(F)F)cc2)C(=O)c2ccccc21
2. O=C1C(O)=C(Cc2ccco2)C(=O)c2ccccc21

Marked response:
5
10

---

For each entry below, report its MIC value.
# System: H. pylori strain SS1
# Protocol: MIC, broth microdilution test, strain SS1
# Assay type: cell-based
# Condition summary: Helicobacter pylori, 24 h, full growth inhibition, read-out: minimal inhibitory concentration (MIC) strain SS1
Your answer should be a number followed by the unit of measure.

| Smiles entry | Test result |
| --- | --- |
| O=C1C(Cl)=C(Nc2ccc(F)cc2)C(=O)c2ccccc21 | 0.625 µg/mL |
| CCCCC1=C(O)C(=O)c2ccccc2C1=O | 10 µg/mL |
| O=C1C(O)=C(Cc2ccc(-c3ccc(Cl)cc3)cc2)C(=O)c2ccccc21 | 10 µg/mL |
| O=C1C(O)=C(Cc2cccs2)C(=O)c2ccccc21 | 10 µg/mL |

Return reported MIC values for all items listed beneath this line.
1. O=C1C(O)=C(Cc2ccc(Cl)cc2)C(=O)c2ccccc21
2. COc1ccc(CC2=C(O)C(=O)c3ccccc3C2=O)cc1OC
3. O=C1C(O)=C(Cc2ccc(F)c(Cl)c2)C(=O)c2ccccc21

Marked response:
5 µg/mL
10 µg/mL
5 µg/mL

Return reported MIC values for all items listed beneath this line.
1. O=C1C(O)=C(Cc2ccc(F)c(C(F)(F)F)c2)C(=O)c2ccccc21
2. O=C1C(O)=C(Cc2ccc(C(F)(F)F)cc2)C(=O)c2ccccc21
3. CC(C)Oc1ccc(CC2=C(O)C(=O)c3ccccc3C2=O)cc1

Marked response:
5 µg/mL
10 µg/mL
20 µg/mL

---

# Tested system: HpThyX (Helicobacter pylori, UniProt O26061)
# Construct: His6; made in house; host or cells: Escherichia coli BL21 (plasmid pGL2, pBAD promoter)
# Sequence (O26061 whole entry): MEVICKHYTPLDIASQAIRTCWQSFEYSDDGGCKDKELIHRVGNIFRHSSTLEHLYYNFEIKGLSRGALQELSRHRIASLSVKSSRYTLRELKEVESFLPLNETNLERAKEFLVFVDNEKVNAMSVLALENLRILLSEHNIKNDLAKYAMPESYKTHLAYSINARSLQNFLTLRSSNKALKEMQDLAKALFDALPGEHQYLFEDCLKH
# Protocol: tritium release (deprotonation) assay of [5-3H]dUMP
# Assay type: biochemical
# Condition summary: 20 min; semi-quantitative deprotonation assay; remaining activity, lower = stronger inhibition; read-out: inhibition against ThyX (% remaining activity relative to control)
remaining activity at 100 µM less than 50% is 1 (yes); remaining activity at 100 µM greater than or equal to 50% is 0 (no).

Use these answered entries as a reference point.
| Compound | Tested system | Cat |
| --- | --- | --- |
| COc1ccc(CC2=C(O)C(=O)c3ccccc3C2=O)cc1 [007-A] | HpThyX (Helicobacter pylori, UniProt O26061) | 1 (yes) |
| COc1cc(CC2=C(O)C(=O)c3ccccc3C2=O)ccc1O [010-H] | HpThyX (Helicobacter pylori, UniProt O26061) | 0 (no) |
| O=C1C(O)=C(Cc2ccc(F)c(C(F)(F)F)c2)C(=O)c2ccccc21 [010-E] | HpThyX (Helicobacter pylori, UniProt O26061) | 0 (no) |
| O=C1C(O)=C(Cc2ccc(-c3ccc(Cl)cc3)cc2)C(=O)c2ccccc21 [007-B] | HpThyX (Helicobacter pylori, UniProt O26061) | 0 (no) |

Okay, next one:
Exam item: Determine whether this compound shows remaining activity at 100 µM lower than 50% (ties excluded): CC(C)Oc1ccc(CC2=C(O)C(=O)c3ccccc3C2=O)cc1 [007-D]
Marked response: 1 (yes)
